Hey, just so you know, these numbers are from ChEMBL document CHEMBL2176989.

Overview of recorded Imax for various compounds
study.target: 5-hydroxytryptamine receptor 6 (Homo sapiens) (UniProt P50406)
Sequence (P50406 whole entry): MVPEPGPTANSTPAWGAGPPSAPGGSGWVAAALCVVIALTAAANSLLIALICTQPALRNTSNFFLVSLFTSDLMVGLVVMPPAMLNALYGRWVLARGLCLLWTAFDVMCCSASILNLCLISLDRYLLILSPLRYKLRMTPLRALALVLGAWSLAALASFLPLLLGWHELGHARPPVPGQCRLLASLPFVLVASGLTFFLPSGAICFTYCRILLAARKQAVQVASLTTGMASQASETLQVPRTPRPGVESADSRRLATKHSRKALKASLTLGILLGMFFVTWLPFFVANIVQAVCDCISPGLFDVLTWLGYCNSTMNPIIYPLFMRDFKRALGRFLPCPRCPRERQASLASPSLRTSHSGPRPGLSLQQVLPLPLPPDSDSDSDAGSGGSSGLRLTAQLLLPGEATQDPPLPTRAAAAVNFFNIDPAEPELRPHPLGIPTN
procedure.summary: Antagonist activity at human recombinant 5HT6 receptor expressed in CHO cells assessed as inhibition of 5HT-induced luciferase activity after 4 hrs by reporter gene assay relative to control
Type: functional, cell-based
Show the value, then the unit it is measured in.

compound.string | Imax
COc1ccc(S(=O)(=O)n2ccc3ccccc32)cc1NC1CCN(C)CC1 | 100%

Inquiry: Find the recorded Imax belonging to COc1ccc(S(=O)(=O)N2CCOc3ccc(C)cc32)cc1NC1CCN(C)CC1 and report it.
Reply text: 100%

Inquiry: Look up Imax for this compound: COc1ccc(S(=O)(=O)n2ccc3cc(Cl)ccc32)cc1NC1CCN(C)CC1
Reply text: 98%
